# measurementTarget: Muscarinic acetylcholine receptor M4 (Homo sapiens) (UniProt P08173)
# Sequence (P08173 whole entry): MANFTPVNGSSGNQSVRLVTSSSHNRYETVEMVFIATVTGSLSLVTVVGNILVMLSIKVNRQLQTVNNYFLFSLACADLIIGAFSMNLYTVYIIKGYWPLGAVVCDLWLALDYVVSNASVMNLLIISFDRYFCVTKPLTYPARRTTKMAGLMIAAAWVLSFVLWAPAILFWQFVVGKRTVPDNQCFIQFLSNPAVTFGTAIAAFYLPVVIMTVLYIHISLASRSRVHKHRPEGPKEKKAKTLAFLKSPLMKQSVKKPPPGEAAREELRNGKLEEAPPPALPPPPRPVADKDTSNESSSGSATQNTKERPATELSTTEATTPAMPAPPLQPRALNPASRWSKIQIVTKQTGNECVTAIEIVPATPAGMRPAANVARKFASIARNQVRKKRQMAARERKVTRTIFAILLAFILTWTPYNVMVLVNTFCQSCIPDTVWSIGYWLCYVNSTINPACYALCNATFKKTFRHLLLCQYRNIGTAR
# procedureText: Allosteric modulation of human M4 mAChR expressed in FIpIn-CHO cells assessed as ERK1/2 phosphorylation measured overall cooperativity after 6 mins by Alphascreen assay
# Assay type: cell-based
quantityName: log(activity)

log(activity) reported for this compound CCCCCCOc1nc2sc(C(=O)NC3CC3)c(N)c2c(C)c1Cl : 0.3

Entry CCNC(=O)c1sc2nc(OC)c(Cl)c(C)c2c1N — recorded log(activity) = 1.84

Next compound, log(activity) to be filled in.
Sample CCCCOc1nc2sc(C(=O)NC3CC3)c(N)c2c(C)c1Cl ; log(activity) observed: 0.4
